FYI, the data here is from patent US20120059162A1.

Would you mind telling me the reported IC50 of each entry?
System: A549
Test: A549 assay: screening of cancer cell growth inhibiting compound
Format: cell-based
Conditions: Homo sapiens, 72 h; A549 cells, three days, WST-8; read-out: A549 IC50
Method: Screening of Cancer Cell Growth Inhibiting Compound A cell suspension solution (RERF-LC-AI, A549: 1×10^4/ml, MRC5: 3×10^4/ml and 1×10^5/ml) adjusted to an appropriate concentration with D-MEM (hereinafter, referred to as a culture solution and manufactured by Nacalai Tesque Inc.) supplemented with 10% FBS (HyClone) was added to the wells of a 96-well plate (hereinafter, well plate) at a rate of 100 μL/well and incubated in a CO2 incubator at 37° C. for a day. […]

Ask: // fetch IC50 given entry `O=C(NC1CC1)c1ccc(-c2cnc3c(NCC4CCCC4)cc(NC4CCCCC4)nn23)cc1`
Result: 0.05 to 0.5 µM

Ask: // fetch IC50 given entry `CN(c1cc(NCC2CCOCC2)c2ncc(-c3ccc(C(=O)NC4CC4)cc3)n2n1)C1CCCC1`
Result: 0.05 to 0.5 µM

Ask: // fetch IC50 given entry `O=C(NC1CC1)c1ccc(-c2cnc3c(NCC4CCOCC4)nc(-c4ccncc4)cn23)cc1`
Result: 0.05 to 0.5 µM

Ask: // fetch IC50 given entry `CC(C)CNc1nc(-c2ccncc2)cn2c(-c3ccc(C(=O)NC4CC4)cc3)cnc12`
Result: 0.05 to 0.5 µM

Ask: // fetch IC50 given entry O=C(NC1CC1)c1ccc(-c2cnc3c(NCC4CCOCC4)cc(NC4CC5CCCC(C5)C4)nn23)cc1 (stereo not drawn)
Result: ≤ 0.05 µM

Ask: // fetch IC50 given entry `N#Cc1ccc(-c2cn3c(-c4ccc(C(=O)NC5CC5)cc4)cnc3c(NCCC3CCOCC3)n2)cc1`
Result: 0.05 to 0.5 µM

Ask: // fetch IC50 given entry `O=C(NC1CC1)c1ccc(-c2cc(NCC3CCOCC3)c3ncc(-c4ccc(C(=O)NC5CC5)cc4)n3n2)cc1`
Result: 0.05 to 0.5 µM

Ask: // fetch IC50 given entry `O=C(NC1CC1)c1ccc(-c2cnc3c(NCC4CCOCC4)cc(Oc4cccc(F)c4)nn23)cc1`
Result: ≤ 0.05 µM

Ask: // fetch IC50 given entry `CC1(Nc2cc(NCC3CCOCC3)c3ncc(-c4ccc(C(=O)NC5CC5)cc4)n3n2)CCCC1`
Result: ≤ 0.05 µM

Ask: // fetch IC50 given entry CC(Nc1cc(NCC2CCOCC2)c2ncc(-c3ccc(C(=O)NC4CC4)cc3)n2n1)C(C)(C)C (stereo not drawn)
Result: ≤ 0.05 µM

Ask: // fetch IC50 given entry `N#Cc1ccc(-c2cn3c(-c4ccc(C(=O)NC5CC5)cc4)cnc3c(NCCN3CCOCC3)n2)cc1`
Result: 0.05 to 0.5 µM

Ask: // fetch IC50 given entry `CC(C)CNc1nc(-c2ccc3occc(=O)c3c2)cn2c(-c3ccc(C(=O)NC4CC4)cc3)cnc12`
Result: 0.5 to 1 µM

Ask: // fetch IC50 given entry `CC(C)CNc1nc(-c2ccc(C(=O)NCCN3CCOCC3)cc2)cn2c(-c3ccc(C(=O)NC4CC4)cc3)cnc12`
Result: 1 to 10 µM

Ask: // fetch IC50 given entry O=C(NC1CC1)c1ccc(-c2cnc3c(NCC4CCOCC4)cc(NC4CCCOC4)nn23)cc1 (stereo not drawn)
Result: 0.05 to 0.5 µM

Ask: // fetch IC50 given entry `CC(C)(C)CNc1cc(NC2CCCCC2)nn2c(-c3ccc(C(=O)NC4CC4)cc3)cnc12`
Result: 0.05 to 0.5 µM

Ask: // fetch IC50 given entry `CC(C)CNc1nc(-c2cccc(C(N)=O)c2)cn2c(-c3ccc(C(=O)NC4CC4)cc3)cnc12`
Result: 0.5 to 1 µM

Ask: // fetch IC50 given entry `O=C(NC1CC1)c1ccc(-c2cnc3c(NCC4CCOCC4)nc(C=C4CCCCC4)cn23)cc1`
Result: 1 to 10 µM

Ask: // fetch IC50 given entry `CC(C)CN(CC(F)(F)F)c1cc(NCC2CCOCC2)c2ncc(-c3ccc(C(=O)NC4CC4)cc3)n2n1`
Result: 0.05 to 0.5 µM

Ask: // fetch IC50 given entry `CC(C)CNc1nc(-c2cccc(C(=O)NCCS(C)(=O)=O)c2)cn2c(-c3ccc(C(=O)NC4CC4)cc3)cnc12`
Result: 1 to 10 µM

Ask: // fetch IC50 given entry `N#Cc1ccc(-c2cn3c(-c4ccc(C(=O)NC5CC5)cc4)cnc3c(NCc3cccs3)n2)cc1`
Result: 0.05 to 0.5 µM

Ask: // fetch IC50 given entry `O=C(NC1CC1)c1ccc(-c2cnc3c(NCC4CCOCC4)cc(N4CCCC4=O)nn23)cc1`
Result: 0.05 to 0.5 µM

Ask: // fetch IC50 given entry N#Cc1ccc(-c2cn3c(-c4ccc(C(=O)NC5CC5)cc4)cnc3c(NCC3COCCO3)n2)cc1 (stereo not drawn)
Result: 0.05 to 0.5 µM

Ask: // fetch IC50 given entry `C#CC(C)(C)Nc1cc(NCC2CCOCC2)c2ncc(-c3ccc(C(=O)NC4CC4)cc3)n2n1`
Result: 1 to 10 µM

Ask: // fetch IC50 given entry O=C(NC1CC1)c1ccc(-c2cnc3c(NCC4CCOCC4)cc(NC4CCCCC4O)nn23)cc1 (stereo not drawn)
Result: 0.05 to 0.5 µM

Ask: // fetch IC50 given entry `O=C(NC1CC1)c1ccc(-c2cnc3c(NCC4CCOCC4)cc(NC4CCC4)nn23)cc1`
Result: 0.05 to 0.5 µM

Ask: // fetch IC50 given entry `N#Cc1ccc(-c2cn3c(-c4ccc(C(=O)NC5CC5)cc4)cnc3c(NCCCCO)n2)cc1`
Result: 0.05 to 0.5 µM

Ask: // fetch IC50 given entry `O=C(NC1CC1)c1ccc(-c2cnc3c(NCC4CCOCC4)cc(N4CCN(C(=O)C5CC5)CC4)nn23)cc1`
Result: 0.05 to 0.5 µM

Ask: // fetch IC50 given entry `N#Cc1ccc(-c2cn3c(-c4ccc(C(=O)NC5CC5)cc4)cnc3c(NCCOCCOCCO)n2)cc1`
Result: 1 to 10 µM

Ask: // fetch IC50 given entry `CC(C)(C)CNc1cc(NCC2CCOCC2)c2ncc(-c3ccc(C(=O)NC4CC4)cc3)n2n1`
Result: 0.05 to 0.5 µM

Ask: // fetch IC50 given entry `COCCNc1cc(NCC2CCOCC2)c2ncc(-c3ccc(C(=O)NC4CC4)cc3)n2n1`
Result: 0.05 to 0.5 µM
